# assay.explanation: Rabbit fed cholesterol-enriched (1%) feedstuff, dosage of elements causing dyslipemia
# Type: in vivo
# setup.conditions: 30th day; 100 mg/Kg orally
reported.property: esterification ratio (E/T)

Below, 5 compounds whose answers are already recorded.
# compound, esterification ratio (E/T)
rows = [
    ("c1ccc(CNc2c(-c3ccccc3)sc3ccccc23)cc1 [derivative n° 1, 3-benzylamino-2-phenyl-benzo(b)thiophene]", "0,63"),
    ("CCCCN(C)c1c(-c2ccc(OC)cc2)sc2ccccc12 [derivative 42]", "0,62"),
    ("CCN(CC)c1c(-c2ccc(Cl)cc2)sc2ccccc12 [derivative 37]", "0,62"),
    ("CN(C)c1c(-c2ccccc2)sc2ccccc12 [derivative 29]", "0,60"),
    ("c1ccc(CN(Cc2ccccc2)c2c(-c3ccccc3)sc3ccccc23)cc1 [derivative 19]", "0,64"),
]

Now look at this entry.
Task: Using known records, supply esterification ratio (E/T) for c1ccc(CN2CCN(c3c(-c4ccccc4)sc4ccccc34)CC2)cc1 [derivative 24]
Output: 0,65

----------
# assay.explanation: Rabbit fed cholesterol-enriched (1%) feedstuff, dosage of elements causing dyslipemia
# Format: in vivo
# Parameters: unit not given here
# setup.conditions: 1st day; 100 mg/Kg orally
So I've got a bunch of molecules here, and I need their Kunkelphenol test (K2) values.

Below, 5 molecules whose answers are already recorded.
# molecule, endpoint.result
measured = [
    ("CCCCN(C)c1c(-c2ccc(OC)cc2)sc2ccccc12 [derivative 42]", "13,7"),
    ("c1ccc(CN2CCN(c3c(-c4ccccc4)sc4ccccc34)CC2)cc1 [derivative 24]", "13,0"),
    ("CCN(CC)c1c(-c2ccc(Cl)cc2)sc2ccccc12 [derivative 37]", "12,9"),
    ("c1ccc(CNc2c(-c3ccccc3)sc3ccccc23)cc1 [derivative n° 1, 3-benzylamino-2-phenyl-benzo(b)thiophene]", "12,8"),
    ("c1ccc(CN(Cc2ccccc2)c2c(-c3ccccc3)sc3ccccc23)cc1 [derivative 19]", "13,1"),
]

Now look at this entry.
Task: Using known records, supply Kunkelphenol test (K2) for CN(C)c1c(-c2ccccc2)sc2ccccc12 [derivative 29]
Output: 12,7

----------
# assay.explanation: Rabbit fed cholesterol-enriched (1%) feedstuff, dosage of elements causing dyslipemia
# Format: in vivo
# Parameters: unit not given here
# setup.conditions: 30th day; 100 mg/Kg orally
reported.property: esterified cholesterol (E)

Take each entry in turn and give its esterified cholesterol (E).
1. CN(C)c1c(-c2ccccc2)sc2ccccc12
2. CCN(CC)c1c(-c2ccc(Cl)cc2)sc2ccccc12
3. c1ccc(CNc2c(-c3ccccc3)sc3ccccc23)cc1

Output:
0,89
0,97
0,95

Take each entry in turn and give its esterified cholesterol (E).
1. c1ccc(CN2CCN(c3c(-c4ccccc4)sc4ccccc34)CC2)cc1
2. CCCCN(C)c1c(-c2ccc(OC)cc2)sc2ccccc12
3. c1ccc(CN(Cc2ccccc2)c2c(-c3ccccc3)sc3ccccc23)cc1

Output:
1. 0,98
2. 0,90
3. 0,95

----------
So I've got a bunch of compounds here, and I need their Burstein dextrane test (B) values.
# assay.explanation: Rabbit fed cholesterol-enriched (1%) feedstuff, dosage of elements causing dyslipemia
# Assay type: in vivo
# Parameters: unit not given here
# setup.conditions: 75th day; 100 mg/Kg orally

# input.smiles, reported.property, endpoint.result
records = [
    ("CCN(CC)c1c(-c2ccc(Cl)cc2)sc2ccccc12", "Burstein dextrane test (B)", "35,7"),
    ("c1ccc(CN(Cc2ccccc2)c2c(-c3ccccc3)sc3ccccc23)cc1", "Burstein dextrane test (B)", "36,1"),
    ("CCCCN(C)c1c(-c2ccc(OC)cc2)sc2ccccc12", "Burstein dextrane test (B)", "35,4"),
]

Take each entry in turn and give its Burstein dextrane test (B).
1. c1ccc(CN2CCN(c3c(-c4ccccc4)sc4ccccc34)CC2)cc1
2. c1ccc(CNc2c(-c3ccccc3)sc3ccccc23)cc1
3. CN(C)c1c(-c2ccccc2)sc2ccccc12

Output:
["35,2", "36,2", "35,1"]

----------
# assay.explanation: Rabbit fed cholesterol-enriched (1%) feedstuff, dosage of elements causing dyslipemia
# Type: in vivo
# setup.conditions: 75th day; 100 mg/Kg orally
# Experimental: The animals divided into several batches of 15 animals are fed with feedstuff enriched in cholesterol (1%). Batch A serves as control and is not treated, the other batches also receive the derivatives to be tested at a dose of 100 mg/Kg, administered orally, suspended in aqueous solution of gum arabic at 5%. […]
reported.property: esterification ratio (E/T)

Below, 5 molecules whose answers are already recorded.
# input.smiles, esterification ratio (E/T)
data = [
    ("c1ccc(CN(Cc2ccccc2)c2c(-c3ccccc3)sc3ccccc23)cc1", "0,61"),
    ("CCN(CC)c1c(-c2ccc(Cl)cc2)sc2ccccc12", "0,61"),
    ("c1ccc(CNc2c(-c3ccccc3)sc3ccccc23)cc1", "0,62"),
    ("CN(C)c1c(-c2ccccc2)sc2ccccc12", "0,60"),
    ("CCCCN(C)c1c(-c2ccc(OC)cc2)sc2ccccc12", "0,61"),
]

Now look at this entry.
Task: Using known records, supply esterification ratio (E/T) for `c1ccc(CN2CCN(c3c(-c4ccccc4)sc4ccccc34)CC2)cc1`
Output: 0,61

----------
# assay.explanation: Propylthiouracil test, free and total cholesterol in the rat
# Format: in vivo
# setup.conditions: 11th day; propylthiouracil-treated rats; oral 100 mg/Kg
So I've got a bunch of compounds here, and I need their Free cholesterol values.

Below, 4 compounds whose answers are already recorded.
# compound, Free cholesterol
measured = [
    ("c1ccc(CN2CCN(c3c(-c4ccccc4)sc4ccccc34)CC2)cc1 [derivative 24]", "0,14 g/l"),
    ("c1ccc(CN(Cc2ccccc2)c2c(-c3ccccc3)sc3ccccc23)cc1 [derivative 19]", "0,14 g/l"),
    ("CCCCN(C)c1c(-c2ccc(OC)cc2)sc2ccccc12 [derivative 42]", "0,12 g/l"),
    ("c1ccc(CNc2c(-c3ccccc3)sc3ccccc23)cc1 [derivative n° 1, 3-benzylamino-2-phenyl-benzo(b)thiophene]", "0,15 g/l"),
]

Take each entry in turn and give its Free cholesterol.
1. CN(C)c1c(-c2ccccc2)sc2ccccc12 [derivative 29]
2. CCN(CC)c1c(-c2ccc(Cl)cc2)sc2ccccc12 [derivative 37]

Output:
["0,12 g/l", "0,13 g/l"]

----------
# assay.explanation: Rabbit fed cholesterol-enriched (1%) feedstuff, dosage of elements causing dyslipemia
# Type: in vivo
# setup.conditions: 30th day; 100 mg/Kg orally
# Method: The animals divided into several batches of 15 animals are fed with feedstuff enriched in cholesterol (1%). Batch A serves as control and is not treated, the other batches also receive the derivatives to be tested at a dose of 100 mg/Kg, administered orally, suspended in aqueous solution of gum arabic at 5%. […]
reported.property: free cholesterol (L)

Below, 5 compounds whose answers are already recorded.
# input.smiles, free cholesterol (L)
data = [
    ("CN(C)c1c(-c2ccccc2)sc2ccccc12", "0,59"),
    ("c1ccc(CN2CCN(c3c(-c4ccccc4)sc4ccccc34)CC2)cc1", "0,52"),
    ("CCN(CC)c1c(-c2ccc(Cl)cc2)sc2ccccc12", "0,58"),
    ("CCCCN(C)c1c(-c2ccc(OC)cc2)sc2ccccc12", "0,55"),
    ("c1ccc(CN(Cc2ccccc2)c2c(-c3ccccc3)sc3ccccc23)cc1", "0,52"),
]

Task: Using known records, supply free cholesterol (L) for `c1ccc(CNc2c(-c3ccccc3)sc3ccccc23)cc1`
Output: 0,55

----------
# assay.explanation: Rabbit fed cholesterol-enriched (1%) feedstuff, dosage of elements causing dyslipemia
# Format: in vivo
# Parameters: unit not given here
# setup.conditions: 75th day; 100 mg/Kg orally
So I've got a bunch of compounds here, and I need their serum lipids (LS) values.

# input.smiles, serum lipids (LS)
records = [
    ("CCN(CC)c1c(-c2ccc(Cl)cc2)sc2ccccc12", "4,15"),
    ("c1ccc(CN(Cc2ccccc2)c2c(-c3ccccc3)sc3ccccc23)cc1", "4,08"),
    ("c1ccc(CN2CCN(c3c(-c4ccccc4)sc4ccccc34)CC2)cc1", "3,98"),
    ("CN(C)c1c(-c2ccccc2)sc2ccccc12", "3,95"),
]

Take each entry in turn and give its serum lipids (LS).
1. CCCCN(C)c1c(-c2ccc(OC)cc2)sc2ccccc12
2. c1ccc(CNc2c(-c3ccccc3)sc3ccccc23)cc1

Output:
4,05
4,18
